- TARGET_OF_ASSAY: recombinant BRD4 BD1 (Homo sapiens, UniProt O60885)
- Construct: for recombinant BRD4 BD1 and BRD4 BD2 proteins
- ASSAY_TEXT: Competitive fluorescence-polarization (FP) binding assay, BRD4 BD1; also: probe 1.5 nM
- EXPERIMENTAL_CONDITIONS: competitive FP assay; protein 10 nM, probe […]; read-out: IC50 (nM) BRD4 BD1
Overview of reported log10 IC50 across a group of compounds:
Values reflect log10 of reported IC50 (nM).

Examples with their reported log10 IC50 follow.
• COc1cc2c(cc1-c1c(C)noc1C)[nH]c1nc(C)nc(Nc3c(C)nn(C(C)C)c3C)c12 = 1.84
• COc1cc2c(cc1-c1c(C)noc1C)[nH]c1nc(C)nc(Nc3cc(C4(C)CC4)nn3C)c12 = 0.95
• COc1cc2c(cc1-c1c(C)noc1C)[nH]c1nc(C)nc(Nc3ccnn3C)c12 = 1.76

Req: Fill in the blank: the reported log10 IC50 of COCCn1nc(C2CC2)cc1Nc1nc(C)nc2[nH]c3cc(-c4c(C)noc4C)c(OC)cc3c12 is ____.
Resp: 1.01

Req: Follow-up entry: COc1cc2c(cc1-c1c(C)noc1C)[nH]c1nc(C)nc(Nc3cc(F)cc(Cl)c3)c12
Resp: 2.33
